assay: Volatility of perfuming compounds (Tables 4 to 10), with top/middle/bottom note type; type: physicochemical; conditions: Table 6, perfuming compounds having a fruity note
Tick yes (1) if Volatility is 300 μg/l air or greater. Tick no (0) if Volatility is less than 300 μg/l air.

Worked examples follow.
compound	label-class
CC(=O)OCCC(C)CCC=C(C)C (stereo not shown) [3,7-DIMETHYL-6-OCTENYL ACETATE]	no (0)
COCC(C)Cc1ccccc1 (racemic) [(+−)-(3-methoxy-2-methylpropyl)benzene]	yes (1)
CC1CCC(=O)O1 (racemic) [(+−)-4-PENTANOLIDE]	yes (1)

Next, consider the following compound.
Could you verify whether the entry CCOC(=O)C1=C(C)C=CCC1(C)C shows Volatility of no less than 300 μg/l air?
yes (1)

---

test: Volatility of perfuming compounds (Tables 4 to 10), with top/middle/bottom note type; format: physicochemical; details: Table 9, gourmand note
Tick criterion met if Volatility is 60 μg/l air or greater. Tick criterion not met if Volatility is less than 60 μg/l air.

Worked examples follow.
compound	label-class
CCCCCC1CCCC(=O)O1 (racemic) [(+−)-6-pentyltetrahydro-2H-pyran-2-one]	criterion not met
CCC(=O)/C=C/C1=C(C)CCCC1(C)C	criterion not met
CC(=O)OCCc1ccccc1 [2-PHENYLETHYL ACETATE]	criterion met
CC(C)CCOCCc1ccccc1	criterion met
CCCC(=O)OC(C)(C)Cc1ccccc1 [1,1-DIMETHYL-2-PHENYLETHYL BUTANOATE]	criterion not met
CCOC(=O)CC1(C)OCCO1 [ETHYL 2-METHYL-1,3-DIOXOLANE-2-ACETATE]	criterion met
O=C1CCC2(CCCCC2)O1 [1-oxaspiro[4.5]decan-2-one]	criterion met
CCCCC[C@@H]1OC(=O)C[C@H]1C (racemic) [(+−)-TRANS-3-METHYL-4-NONANOLIDE]	criterion not met
CCCCCCC1CCCC(=O)O1 (stereo not shown) [6-hexyltetrahydro-2H-pyran-2-one]	criterion not met

Could you verify whether the entry CC(=O)OCCC1CCCCC1 [2-CYCLOHEXYLETHYL ACETATE] shows Volatility of no less than 60 μg/l air?
criterion met

---

experiment: Volatility of perfuming compounds (Tables 4 to 10), with top/middle/bottom note type; format: physicochemical; details: perfuming compounds having a green note
Counter-ions that a name gives are not always drawn.
parameter-measured: Volatility (μg/l air)
Answer shape: numeric part, then the unit.

Below are worked cases with known answers.
compound	Volatility (μg/l air)
C/C=C(\C)C(=O)OCC/C=C\CC	168.78 μg/l air
CC(C)(C)c1ccc2c(c1)OCC(=O)CO2	4.37 μg/l air
CCC/C=C/COC(C)=O [(E)-2-HEXENYL ACETATE]	6062.68 μg/l air
CC/C=C\CCOC=O [(Z)-3-HEXENYL FORMATE]	9873.53 μg/l air
COc1ccc(C(C)=O)cc1 [1-(4-METHOXYPHENYL)-1-ETHANONE″]	50.21 μg/l air
CC/C=C\CCOC(=O)C(C)C [(Z)-3-HEXENYL ISOBUTYRATE]	1073.97 μg/l air
C=C(C)CC(C(C)=O)C(=O)OCC (racemic)	295.22 μg/l air
CC(=O)OC/C=C(\C)CCC=C(C)C [(E)-3,7-DIMETHYL-2,6-OCTADIENYL ACETATE]	79.23 μg/l air

Which measured Volatility (μg/l air) value corresponds to CCCC(S)CCOC (racemic) [(+−)-1-METHOXY-3-HEXANETHIOL] ?
2534.77 μg/l air

Which measured Volatility (μg/l air) value corresponds to CCCCC/C=C\CCC=O [(Z)-4-DECENAL] ?
629.54 μg/l air
